- System: SK-MES-1
- assay_protocol: relative viability (nuclei count vs DMSO), 5 days (fraction); higher = more cells survive
- experimental_context: first compound 0.000632 µM
parameter: relative viability

molecule	observed
CC(=O)O[C@@]12CO[C@@H]1C[C@H](O)[C@@]1(C)C(=O)[C@H](O)C3=C(C)[C@@H](OC(=O)[C@H](O)[C@@H](NC(=O)OC(C)(C)C)c4ccccc4)C[C@@](O)([C@@H](OC(=O)c4ccccc4)[C@H]21)C3(C)C [Docetaxel] + C[C@]1(O)C[C@@H](c2nc(-c3ccc4ccc(-c5ccccc5)nc4c3)c3c(N)nccn32)C1 [Linsitinib] (partner 1 µM)	0.967
CC(=O)O[C@@]12CO[C@@H]1C[C@H](O)[C@@]1(C)C(=O)[C@H](O)C3=C(C)[C@@H](OC(=O)[C@H](O)[C@@H](NC(=O)OC(C)(C)C)c4ccccc4)C[C@@](O)([C@@H](OC(=O)c4ccccc4)[C@H]21)C3(C)C [Docetaxel] + CS(=O)(=O)N1CCN(Cc2cc3nc(-c4cccc5[nH]ncc45)nc(N4CCOCC4)c3s2)CC1 [Pictilisib] (partner 1 µM)	0.34
CC(=O)O[C@@]12CO[C@@H]1C[C@H](O)[C@@]1(C)C(=O)[C@H](O)C3=C(C)[C@@H](OC(=O)[C@H](O)[C@@H](NC(=O)OC(C)(C)C)c4ccccc4)C[C@@](O)([C@@H](OC(=O)c4ccccc4)[C@H]21)C3(C)C [Docetaxel] + O=C(c1cc(Cc2n[nH]c(=O)c3ccccc23)ccc1F)N1CCN(C(=O)C2CC2)CC1 [Olaparib] (partner 8 µM)	0.405
CC(=O)O[C@@]12CO[C@@H]1C[C@H](O)[C@@]1(C)C(=O)[C@H](O)C3=C(C)[C@@H](OC(=O)[C@H](O)[C@@H](NC(=O)OC(C)(C)C)c4ccccc4)C[C@@](O)([C@@H](OC(=O)c4ccccc4)[C@H]21)C3(C)C [Docetaxel] + CC(=O)c1c(C)c2cnc(Nc3ccc(N4CCNCC4)cn3)nc2n(C2CCCC2)c1=O [Palbociclib] (partner 0.5 µM)	0.444
CC(=O)O[C@@]12CO[C@@H]1C[C@H](O)[C@@]1(C)C(=O)[C@H](O)C3=C(C)[C@@H](OC(=O)[C@H](O)[C@@H](NC(=O)OC(C)(C)C)c4ccccc4)C[C@@](O)([C@@H](OC(=O)c4ccccc4)[C@H]21)C3(C)C [Docetaxel] + Nc1ncn([C@H]2C[C@H](O)[C@@H](CO)O2)c(=O)n1 [Decitabine] (partner 2 µM)	0.381
CC(=O)O[C@@]12CO[C@@H]1C[C@H](O)[C@@]1(C)C(=O)[C@H](O)C3=C(C)[C@@H](OC(=O)[C@H](O)[C@@H](NC(=O)OC(C)(C)C)c4ccccc4)C[C@@](O)([C@@H](OC(=O)c4ccccc4)[C@H]21)C3(C)C [Docetaxel] + O=C(CCCCCCC(=O)Nc1ccccc1)NO [Vorinostat] (partner 1 µM)	0.925
